conditions: human liver microsomes
Exercise: for every item that follows, state its recorded HLM Clhep.
Give bare numbers, in L/h/kg.

Here's what some known entries look like.
> print(dat)
                                   compound  datavalue
1  Cc1nc(N)ncc1-c1nc(N2CCOCC2)c2nc3n(c2n1)CCOC3(C)C      0.186
2  COC1(c2sc3c(N4CCOCC4)nc(-c4cnc(N)nc4)nc3c2C)COC1 [Compound 2, reference compound]      0.588

Give HLM Clhep for all compounds that follow.
1. Cc1nc(N)ncc1-c1nc(N2CCOCC2)c2nc(C(C)(C)O)n(CCO)c2n1
2. COC(C)(C)c1cc2nc(-c3cnc(N)nc3)nc(N3CCOCC3)c2s1 [Compound 1, reference compound]
3. CC1(C)OCCn2c1nc1c(N3CCOCC3)nc(-c3cnc(N)nc3)nc12

Result ::
[0.168, 0.624, 0.3]
